B1: GAGE1 (parent)
chain: QPPEMIGPMRPEQFSDEVEPATPE

variants of: B1; test: protein stability index of a GFP-peptide fusion (GPS, HEK-293T) (PSI 1-6); higher = more stable; settings: c terminus: a fixed tail appended;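 also: lentivirally expressed fusions sorted by FACS into six bins by GFP to DsRed ratio, PSI derived from sequencing read proportions per bin multiplied by bin number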
// reported protein stability index for each item listed

| MUTATION_NAME | protein stability index |
| --- | --- |
| P23Q | 5.16 |
| M5W | 5.54 |
| E4M | 5.65 |
| E19C | 4.62 |
| S15F | 3.19 |
| T22L | 4.79 |
| E12W | 4.88 |
| Q13T | 5.84 |
| P11N | 5.44 |
| E17R | 5.34 |
| E4S | 5.2 |
| P20A | 4.44 |
| E12L | 5.8 |
| S15G | 4.48 |
| V18I | 4.91 |
| P23Y | 4.4 |
| D16K | 5.51 |
| P2Q | 4.64 |
| P3V | 4.83 |
| G7F | 5.83 |
| M5T | 5.19 |
| M5Q | 5.25 |
